Data provenance: BindingDB's records for doi:10.1021/jm980131z

# System: Human cytomegalovirus protease (Human herpesvirus 5)
# Assay protocol: Inhibitory activity against human cytomegalovirus (HCMV) protease
Reported IC50 values for the following compounds.

{"Entry smiles": "Cc1ccc(CN(C)C(=O)N2C(=O)C[C@@H]2Cc2ccccc2)cc1", "Unit text": "µM", "IC50": 8.9}
{"Entry smiles": "CN(Cc1ccc(Cl)cc1)C(=O)N1C(=O)C[C@@H]1Cc1ccccc1", "Unit text": "µM", "IC50": 6.9}
{"Entry smiles": "CON(Cc1ccccc1)C(=O)N1C(=O)C[C@@H]1Cc1ccccc1", "Unit text": "µM", "IC50": 6.2}
{"Entry smiles": "CN(Cc1ccc([N+](=O)[O-])cc1)C(=O)N1C(=O)C[C@@H]1Cc1ccccc1", "Unit text": "µM", "IC50": 1.5}
{"Entry smiles": "O=C1C[C@H](Cc2ccccc2)N1C(=O)N(Cc1ccccc1)OCc1ccccc1", "Unit text": "µM", "IC50": 13}

====

# System: Human cytomegalovirus protease (Human herpesvirus 5)
# Assay protocol: Inhibitory activity against human cytomegalovirus (HCMV) protease
pIC50: −log10 of the molar value.
Property measured: pIC50

{"Entry smiles": "CN(Cc1ccc(N)cc1)C(=O)N1C(=O)C[C@@H]1Cc1ccccc1", "Property measured": "pIC50", "Value reported": 4.70}
{"Entry smiles": "CC(C)c1ccc(CN(C)C(=O)N2C(=O)C[C@@H]2Cc2ccccc2)cc1", "Property measured": "pIC50", "Value reported": 5.19}
{"Entry smiles": "CC[C@@H](NC(=O)N1C(=O)C[C@@H]1Cc1ccccc1)c1ccccc1", "Property measured": "pIC50", "Value reported": 5.59}

====

# System: Human cytomegalovirus protease (Human herpesvirus 5)
# Assay protocol: Inhibitory activity against human cytomegalovirus (HCMV) protease
pIC50: −log10 of the molar value.
Measured pIC50, listed per entry for reference.
Property measured: pIC50

{"Entry smiles": "CC1(C)C(=O)N(C(=O)NCc2ccncc2)[C@@H]1Cc1ccccc1", "Property measured": "pIC50", "Value reported": "< 3.52"}
{"Entry smiles": "CC1(C)C(=O)N(C(=O)NCc2ccncc2)[C@H]1Cc1ccccc1", "Property measured": "pIC50", "Value reported": "< 4.12"}
{"Entry smiles": "C[C@@H](NC(=O)N1C(=O)C[C@H]1Cc1ccccc1)c1ccccc1", "Property measured": "pIC50", "Value reported": "< 4.12"}
{"Entry smiles": "O=C1C[C@H](Cc2ccccc2)N1C(=O)N(Cc1ccccc1)C1CC1", "Property measured": "pIC50", "Value reported": "< 4.12"}
